Provenance of the data: patent US11827628B2

Tested on: Primary human T-cells
Experiment: Primary Human T-Cell Proliferation Assay Stimulated with IL-2 (CellTiter-Glo)
Type: cell-based
Conditions: primary human T-cell proliferation stimulated with IL-2; read-out: IC50, Example 42
Consider the cut-off 2000 nM. If the recorded IC50 is strictly smaller, the label is true; if not, the label is false.

Ask: is_below(IC50, 2000 nM) for Cc1cc(Nc2nc(Nc3ccc(S(N)(=O)=O)cc3)ncc2F)ccc1OCC(N)=O ?
Reply: true

Ask: API: query returns whether the compound falls strictly under 2000 nM in IC50. Query: CC(C#N)Oc1ccc(Nc2nc(Nc3cccc(S(N)(=O)=O)c3)ncc2F)cc1 (racemic)
Reply: true

Ask: In plain terms, does Cc1ccc(Nc2ncc(F)c(Nc3ccc(OCC#N)c(F)c3)n2)cc1S(N)(=O)=O come in under 2000 nM for IC50?
Reply: true

Ask: Hello, is IC50 of the following compound strictly smaller than 2000 nM? Cc1cc(COc2ccc(Nc3nc(Nc4ccc(C)c(S(N)(=O)=O)c4)ncc3F)cc2)n(C)n1
Reply: true

Ask: Determine if CCN(CC)CCNS(=O)(=O)c1ccc(Nc2ncc(F)c(Nc3ccc(CC#N)cc3)n2)cc1 shows IC50 strictly lower than 2000 nM.
Reply: false

Ask: Does Cc1ccc(Nc2ncc(F)c(Nc3cccc(OCc4cccnc4)c3)n2)cc1S(N)(=O)=O have IC50 strictly under 2000 nM?
Reply: true

Ask: Hi there! Is IC50 for CCC(=O)NS(=O)(=O)c1cc(Nc2ncc(F)c(Nc3ccc(OCC#N)cc3)n2)ccc1C below 2000 nM, do you know?
Reply: false

Ask: Could you please tell me whether IC50 recorded for Cc1ccc(Nc2ncc(F)c(Nc3ccc(CCC#N)c(C(F)(F)F)c3)n2)cc1S(N)(=O)=O is less than 2000 nM?
Reply: true
